procedure text: soluble fraction after stress (log2 fold change); higher = more stays soluble; pooled small domains, quantitative proteomics;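 also: 20 min heating vs room temperature control held 20 min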
assay context: stress: 75 degC
property: soluble fraction (log2)
// return just the number, without any unit appended

1) HMAEVIYGAGKTPAQMLGILRTMQAHGQKTVLITRLREEAAEEIGREIPLQYDKTAGVGIVGTLPQPDG = -0.102
2) HMIIENIVVEIKGEVYNPGLYILEQGSRINDLIELSGGFTKDANGTDLNLAKVLSDGEVIIVSKKG = -1.29
3) HMWMTAQDFRNSSLPWSATTSYNEGQSVRVVDGSNTYYYIAIVKTQPGQSPTTHPTSWREVDA = -1.16
4) HMELVQIIGNNIRDLMTTRSVTITDLANYLNVSRQTLQNYLRGSNIIDSVKLVAVSDFFDVPVESLLQSK = -1.45
5) HMVLALRGIVQGGAEPLVILSDGRTSQSLAVGERFLAYEVVEIGRTGVRLRGPEGEIWLAMASF = -1.2
6) HMKKPANLISEDRMVEVLYDVIIINTAKGVNKQLLQNNINNPLNYIYRSHGIDSLQFAESNAYYTS = -0.563

Item HMRKRLLQLVHIGKSQLGMDDETYRSLLSQQFYQNSAKNISYSELVKLVKILQQKGAKIRLPH has what recorded soluble fraction (log2)?
-2.17

Okay, and HMSEYEYALHEFGITKKQSQRIFDRLSIADLEERINAIQTTLKQRSDIDNPAAYAWTVLNAE ?
-0.0603

* * *

procedure text: soluble fraction after stress (log2 fold change); higher = more stays soluble; pooled small domains, quantitative proteomics
assay context: stress: 75 degC
Give true when the value for soluble fraction (log2) is at least -1. Give false when it is less.

Check the entry HMTHHGHSIKRIRDMLGIKQETLAAELNMTQQAFSKLEQKEQIEDEMLDKIAKILHVSTEALKT : does soluble fraction (log2) equal or exceed -1?
true

Likewise for HMQFYSGLEARLMDPNTPEVFDDPISLMAFLQQKNISRVELEDNLLLPYLKEMAGQPIPKAELLEIIRK ?
true

Next: HMVPLSPRFFDIFRKRKDLTRQNVDVYFRDHPTEITAFERYIKGLVSQSYIPAERADALLLVASQYKAK
false

Same question for HMSGKWSILILHALEQGPKRFNVLHRELSGITQATLTKQLRQLEEDGIILRKAYPQIPPKVEYQLTEIG please.
false

Also, HMSEHLTLVVSDEDAGHRVDQFLVSRLAHMTRSQIQKLIKDGQVTIDTKLVRASTTVHTDNIVTIEFPPAV please.
false

Same question for HMGSTATVIASRLNMRASASTTGALLTKIPNGATVTVLGTTGAWSHIRYGSYTGYVMSQYLRING please.
false

Now give it for HMEPGEVQVDGLRFIAQPQERNDFEVALEQFRAGNFAAARKSFAAFINTYKQSGYLPSARFW too.
true

Okay, and HMSKEDDSLVVTFRRMLLEEVDLHELSRIDANQRRARLERVIAHLVSREGVILSASERNQLVRRVVDEAV ?
false

* * *

soluble fraction (log2) overview
procedure text: soluble fraction after stress (log2 fold change); higher = more stays soluble; pooled small domains, quantitative proteomics
assay context: stress: 75 degC
// response body must contain only the number

Known soluble fraction (log2) results, listed for orientation:
1. HMKRITGHLTEKNKKWYAVINLYDTDGKRKEKWQGLNLDANKGNKREAEHRLRQILDQYNTD = -0.258
2. HMDRMMQPETWGRVYQWITDDPQVPDREEVLTLIKYHYGDFGKLMKLLHRLNEGKAWTYLSEHIFPRM = -0.254
3. HMVREVGYNAFLAMLDSGAVKEVARDESEGQITFLATDEKGKERVYKTGIWPDDTLTERLNTAGVEFA = 0.351

Proceeding to the next sequence to report its soluble fraction (log2).
GET /values?readout=soluble fraction (log2)&item= HMPERMLEPLLNGNEIMKVTQLQPGPKVGLIRDALLQAQISGDVTDTESAKAFVQDYAKRNI
0.0453

* * *

procedure text: soluble fraction after stress (log2 fold change); higher = more stays soluble; pooled small domains, quantitative proteomics
assay context: stress: 75 degC
property: soluble fraction (log2)
// return just the number, without any unit appended

1) HMEKGNEEALEQAREAILAVQSGEKYVDLDPANAAIRRKQHALAQASDLVSQSYGKDPNRYVRIFR = 0.233
2) HMKAGAVFNEGDVLYPKIGGLKLMAAAGEGGKVVATLAKTDEMIYMGEEQSGFVKVESGSGSGWVKKILVA = 0.438
3) HMDKINQEAIEDEAGLWLAKIDGRQLAQEEVRELIAWMRRSDFHREYLITLARQWDGMAALNKLATLFP = -2.08
4) HMGLASEVKTEDVLNEEKYDFEPDLIGNNNEAIYQNKQTGSYVLFDRNQNKVTKVLSAGEVLNHSKYNE = -0.138

Value lookup for soluble fraction (log2); key = HMAEAIVMSTAAPVKSSPDPQSKDIFVLHEGTKVAVGDSLGDWREIRIADGNKGWVLVSAIEMI
0.0397

Same lookup for HMGEQVAVPDVTKKSVREVNNILTSAGLRLQIEGSGISVRQDPPADTMVAPDTVVTVSFEPP , please.
0.118

Then what about the sequence HMIGKDLLGYEVFSESGDLVGILKDVMWLPHSDVYVITNGGKELLIPVIPEVVKGINHEQGVIVISPM ?
0.394

Thanks! And HMFGSKDVKRAIEDYAAAMSSQPRALSAPQRKVLIRHLATSGLLQLRGAAKIVADELGISRASVYNALKV ?
-1.53

Try this sequence too: HMELPPLEPIDRILVVQQPINIREQPGVLAKKIGRVSSGETLTILAKVSGQDWYFVETDNGGRGYVFKRV
-1.15

* * *

procedure text: soluble fraction after stress (log2 fold change); higher = more stays soluble; pooled small domains, quantitative proteomics
assay context: stress: 75 degC
Overview of reported soluble fraction (log2) across a group of sequences:
Note: the reply should be a number with no unit written.

Before answering, review these 6 worked examples.
1. HMEVAASEQRDNLWALARRVLSGEQYDVLYLRYVEDFSVAQIADVVGKTQTHVKVLLFRGRNNLGSRLRS = 0.0441
2. HMTAVVPNFKGKLISELSNFVADKNVRYTIIDSIYDPEEKSGIVIKQDPEEKTQVKHNRIIYLYVTST = -1.51
3. HMIKIEDILNVESVELSDSEYKKFLNGILINVKNLENGWAKVYSGNEFKGFGIVDKNLLKRKIVID = -1.49
4. HMLEINTIIGNNLKKIRQEKKLTLDELAGITGVSKGMLSQIEKGTTNPTINTIWKISNGLNVPYTYLLEDD = -0.513
5. HMNKVAQFYRELVSTLSERLRNGERDIDALVEQARVRISQSGELTQSEIENVIRAVRRDLEEFALSYEE = -0.0274
6. HMAREQISVSQMVRDVRDGQVKNIEVLGQELRLSYADGSQKVTRKEEGQQALEILFASDIDLAALDLEVQ = -0.0792

Any idea what its soluble fraction (log2) is? The sequence is HMDTIYPFNPNFIDDYKGYVLGLNTNEIDRLLKYRSKGNWINSAEDFKKVTGIDDALLNKLSKSFKFPDWL
-1.81

Then this sequence: HMDAVTYAKGSSGETVREIQQLLLDWGYYSGEVDGIFGSRTEDAVEYFQRKNGLTVDGKVGPATLEALGIS
-0.0808

* * *

procedure text: soluble fraction after stress (log2 fold change); higher = more stays soluble; pooled small domains, quantitative proteomics
assay context: stress: 75 degC
property: soluble fraction (log2)
Give the figure only, with no unit attached.

The following sequences have reported results that may help.
1. HMISASDLQTYLKGMDYPARKEDLIVHAQRNNAPESVIAAIRQFSDRTYQSAADVSEEFGKI = 0.602
2. HMHSQVFTDPDKAKNAVVKLGAPLVVKADGLALGKGVIIAQNPQAAKEAVASVGSSGISSISVT = 0.126
3. HMAGAITEREVEVLELLSRGLGNKEIAKELFVSEATVKSHLSHIYTKLAVDTRAGAVAAAIERRIIRAWR = -2.99

Now for a further sequence.
// lookup soluble fraction (log2) for HMLTKAEEQVMDYLWKLEKAFVKDILDEFPEPKPAYTTVSTMVRILEKKGMVGYTAYGKNHQYYPL
-1.97

* * *

sequences and their reported soluble fraction (log2)
procedure text: soluble fraction after stress (log2 fold change); higher = more stays soluble; pooled small domains, quantitative proteomics
assay context: stress: 75 degC

1. HMPPPVDLDKKGYKLRGIVLEDGRSAAFVFVPAEKRVVVLRENASGPVRLLETGMRRIRLQTPEGAGYLEL = -1.36
2. HMLNERQKKIIKILKDNKNWMTGKELSEFLNVSDRTIRSDIEYINRYNNALIESNVKNGYHLNFE = -0.233
3. HMDYEVPEELEEKFSENPQFKEAFDNLTPGRQHQYIYHISQAKRSQTRINRIEKYYEHILNGKGMQD = 0.111

Next, consider the following sequence.
Using the record for HMQQLIEFSVTKGHPWINKKIMDLNLPENQLILTIQREGHVVSAEGKTIILENDRITISTDDR , report its soluble fraction (log2).
-1.26
